Measured IC50, listed per entry.
Target: CDK2/Cyclin E1 (Homo sapiens, UniProt P24941)
Assay: CDK2/Cyclin E1 Biochemical Assay (TR-FRET), 0.060 mM ATP
Conditions: 0.15 μM Rb (Ser780)-biotin substrate, pH7.0, 60 min preincubation, 120 min reaction, room temperature
Description: CDK2/Cyclin E1 and CDK1/Cyclin B1 Biochemical Assays Compounds disclosed herein were tested for inhibition of CDK2/Cyclin E1 or CDK1/Cyclin B1 kinase in an assay based on the time-resolved fluorescence-resonance energy transfer (TR-FRET) methodology. […] Plates were incubated at room temperature for 60 minutes, and the TR-FRET signals (ex337 nm, em665 nm/620 nm) were recorded on a PHERAstar FSX plate reader (BMG Labtech). […]
Enter your answer as a number in nM; do not include the unit.

Past entries and their recorded results:
CC(C)NC(=O)O[C@H]1CC[C@@H](c2cc(Nc3ccc4c(c3)C(C)NS4(=O)=O)n[nH]2)C1 (single isomer, unassigned) [Example 321c]    1.3
CC(C)NC(=O)O[C@H]1CC[C@@H](c2cc(Nc3ccc4c(c3F)CN(C(C)C3COC3)S4(=O)=O)n[nH]2)C1 (relative stereo)    5.7
Cc1cc2c(cc1Nc1cc([C@@H]3CC[C@H](OC(=O)NC(C)C)C3)[nH]n1)CS(=O)(=O)N2 (relative stereo)    128

Record CC1NS(=O)(=O)c2ccc(Nc3cc([C@@H]4CC[C@H](OC(=O)NC5(C)CC5)C4)[nH]n3)c(F)c21 (single isomer, unassigned) [Example 52b] . Reported IC50: 2.7

Record COCN1c2c(F)cc(Nc3cc([C@@H]4CC[C@H](OC(=O)NC(C)C)C4)[nH]n3)cc2CS1(=O)=O (relative stereo) . Reported IC50: 7.7

Record CC[C@H](C)NC(=O)O[C@H]1CC[C@@H](c2cc(Nc3ccc4c(c3)CS(=O)(=O)N4)n[nH]2)C1 (single isomer, unassigned) [Example 323b] . Reported IC50: 6.2

====

target: CDK2/Cyclin E1 (Homo sapiens); experiment: CDK2/Cyclin E1 Biochemical Assay (TR-FRET), 0.060 mM ATP; conditions: 0.15 μM Rb (Ser780)-biotin substrate, pH7.0, 60 min preincubation, 120 min reaction, room temperature
just bin them by IC50: LOW = under 2 nM, MEDIUM = from 2 nM up to 5 nM, HIGH = 5 nM and over

Reference set (5 entries):
[2H]C([2H])([2H])N1c2ccc(Nc3cc([C@@H]4CC[C@H](OC(=O)NC5(C)CC5)C4)[nH]n3)c(F)c2CS1(=O)=O (relative stereo)    LOW
COCC(C)(C)NC(=O)O[C@H]1CC[C@@H](c2cc(Nc3ccc4c(c3F)CS(=O)(=O)N4C3CC3)n[nH]2)C1 (relative stereo)    MEDIUM
CC1(NC(=O)O[C@H]2CC[C@@H](c3cc(Nc4cc5c(cc4F)NS(=O)(=O)C5)n[nH]3)C2)CC1 (relative stereo)    HIGH
CC(C)NC(=O)O[C@H]1CC[C@@H](c2cc(Nc3ccc4c(c3)CS(=O)(=O)N4C3COC3)n[nH]2)C1 (relative stereo)    HIGH
[2H]C([2H])([2H])N1c2c(F)cc(Nc3cc([C@@H]4CC[C@H](OC(=O)NCCC)C4)[nH]n3)cc2CS1(=O)=O (single isomer, unassigned) [Example 290a]    HIGH

Prompt: Which IC50 band matches CC1(NC(=O)O[C@@H]2CC[C@H](c3cc(Nc4ccc5c(c4F)CS(=O)(=O)N5)n[nH]3)C2)CC1 (single isomer, unassigned) [Example 388a] ?
Response: LOW

Prompt: Which IC50 band matches CN1Cc2c(ccc(Nc3cc([C@@H]4CC[C@H](OC(=O)NCC(C)(C)O)C4)[nH]n3)c2F)S1(=O)=O (relative stereo) ?
Response: HIGH

These data points were gathered from patent US20260297080A1.
